The origin of these recorded values is PubChem BioAssay AID463173.

tested on: DeltatarO mutant; assay: S. aureus survival, RN4220 and DeltatarO strains – OD600, teichoic acid synthesis inhibitors, primary screen (AID 463173); details: S. aureus RN4220 wild type/DeltatarO growth, OD600, 18 h, active compounds read low, screened at 18.75 µg/mL (by protocol)
Screen size: about 52,000 compounds; about 4,300 (8.3%) were called active. Only a selection was taken, and actives are over-represented in it overall.

{"columns": ["compound", "testedTarget", "survival / %"],
 "data": [
  ["O=S(=O)(NCC(c1cccs1)S(=O)(=O)c1ccccc1)c1ccc(F)c(C(F)(F)F)c1 (stereo not given)", "DeltatarO mutant", 92],
  ["O=C(NCc1ccccc1)C(=O)NCC(c1cccs1)S(=O)(=O)c1ccccc1 (stereo not given)", "DeltatarO mutant", 52],
  ["COc1cccc(NC(=O)CSc2ncc3c(n2)-c2ccc(Cl)cc2N(C)S3(=O)=O)c1", "DeltatarO mutant", 37],
  ["Cc1ccc(NC(=O)CSc2ncc3c(n2)-c2ccc(Cl)cc2N(C)S3(=O)=O)cc1F", "DeltatarO mutant", 69],
  ["CCCN1CCN(CCCNC(=O)c2cc3c(Cl)nc4ccccc4c3s2)CC1", "DeltatarO mutant", 116],
  ["COc1cccc(-n2cc(C(=O)Nc3cc(C)c(Cl)cc3OC)c3ccccc3c2=O)c1", "DeltatarO mutant", 56],
  ["Cn1c(SCc2ccccc2)nnc1C1CCCN1CC(=O)N1CCN(c2ccc(F)cc2)CC1 (stereo not given)", "DeltatarO mutant", 70],
  ["N=Nc1c(O)n(CC(=O)Nc2ccccc2)c2ccccc12", "DeltatarO mutant", 87],
  ["COc1ccccc1N1CCN(C(=O)c2cc3c(s2)-c2ccccc2OC3)CC1", "DeltatarO mutant", 88],
  ["N=C(N=Nc1c(O)n(Cc2ccccc2)c2ccccc12)SCC(=O)Nc1ccccc1", "DeltatarO mutant", 23],
  ["O=C(NCCCN1CCN(c2ccc(F)cc2)CC1)c1cc2c(Cl)nc3ccccc3c2s1", "DeltatarO mutant", 91],
  ["CCCn1c(=O)c2sccc2n2c(CCCC(=O)Nc3ccc(Oc4ccccc4)cc3)nnc12", "DeltatarO mutant", 88],
  ["O=S(=O)(NCC(c1cccs1)S(=O)(=O)c1ccccc1)c1ccccc1 (stereo not given)", "DeltatarO mutant", 115],
  ["O=C(NCc1ccccc1)C(=O)NCC(c1cccs1)S(=O)(=O)c1cccs1 (stereo not given)", "DeltatarO mutant", 91],
  ["CN(C)Cn1c(O)c(N=NC(=O)c2ccccc2)c2ccccc21", "DeltatarO mutant", 93],
  ["COc1ccc2c(c1)CC(C(=O)NCCN1CCN(c3cccc(C)c3C)CC1)CO2 (stereo not given)", "DeltatarO mutant", 76],
  ["COc1ccc2c(c1)CC(C(=O)NCCN1CCN(c3ccccc3F)CC1)CO2 (stereo not given)", "DeltatarO mutant", 47],
  ["COc1cc(NC(=O)CSc2ncc3c(n2)-c2ccc(Cl)cc2N(Cc2ccccc2)S3(=O)=O)cc(OC)c1", "DeltatarO mutant", 55],
  ["COc1ccc(N2CCN(CCCNC(=O)c3cc(Nc4ccccc4OC)nc4ccccc34)CC2)cc1", "DeltatarO mutant", 62],
  ["Cc1ccc(-c2nc(C(=O)NCc3ccc(Cl)cc3)c3n2CCCCC3)cc1", "DeltatarO mutant", 56]
]}
